- test system: KRAS G12C (Homo sapiens, UniProt P01116+P62937, G12C)
- Sequence (P01116 1-169 isoform P01116-2 G12C): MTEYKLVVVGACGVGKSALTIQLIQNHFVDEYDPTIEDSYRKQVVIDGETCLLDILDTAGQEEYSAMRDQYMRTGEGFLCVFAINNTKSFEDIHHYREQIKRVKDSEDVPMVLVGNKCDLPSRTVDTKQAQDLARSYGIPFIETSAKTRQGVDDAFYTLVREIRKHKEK
- Sequence (P62937 whole entry): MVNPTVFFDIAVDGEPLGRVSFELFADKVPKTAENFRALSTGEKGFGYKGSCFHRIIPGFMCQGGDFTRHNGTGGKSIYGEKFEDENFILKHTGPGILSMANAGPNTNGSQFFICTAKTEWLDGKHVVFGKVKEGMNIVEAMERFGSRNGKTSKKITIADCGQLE
- measurement notes: Disruption of BRAF RBD interaction with Ras (FRET / MOA assay, with Cyclophilin A)
- Format: biochemical
- measurement parameters: read-out: KRAS G12C FRET data, IC50
Please provide measured IC50 for the entries that follow.

CCn1c(-c2cccnc2[C@H](C)OC)c2c3cc(ccc31)-c1csc(n1)C[C@H](NC(=O)[C@H](C(C)C)N(C)C(=O)N1CCCC13CCOCC3)C(=O)N1CCC[C@H](N1)C(=O)OCC(C)(C)C2 (atropisomer, axis not shown)    100 to 1000 nM

Here's the next entry for you.
Just so you know, measured IC50 for `CCn1c(-c2cccnc2[C@H](C)OC)c2c3cc(ccc31)-c1cc(O)cc(c1)C[C@H](NC(=O)[C@H](C(C)C)N(C)C(=O)OC1CC1)C(=O)N1CCC[C@H](N1)C(=O)OCC(C)(C)C2` came out at 100 to 1000 nM

---

Provide the reported pIC50 of each item.
- test system: KRAS G12S (Homo sapiens, UniProt P01116+P62937, G12S)
- Sequence (P01116 1-169 isoform P01116-2 G12S limits assumed): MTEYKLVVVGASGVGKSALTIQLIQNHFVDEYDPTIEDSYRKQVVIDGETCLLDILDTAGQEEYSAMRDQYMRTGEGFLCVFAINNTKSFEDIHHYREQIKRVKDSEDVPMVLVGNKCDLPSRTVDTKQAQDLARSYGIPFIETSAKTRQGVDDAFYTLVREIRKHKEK
- Sequence (P62937 whole entry): as the sequence (P62937 whole entry) above
- measurement notes: Disruption of BRAF RBD interaction with Ras (FRET / MOA assay, with Cyclophilin A)
- Type: biochemical
- measurement parameters: read-out: KRAS G12S FRET data, IC50
pIC50: −log10 of the molar value.

CCN(C(=O)N(C)[C@H](C(=O)N[C@H]1Cc2nc(cs2)-c2ccc3c(c2)c(c(-c2cccnc2[C@H](C)OC)n3CC)CC(C)(C)COC(=O)[C@@H]2CCCN(N2)C1=O)C(C)C)C1CC1    6.00 to 7.00

Record pIC50 per entry; entries follow.
1. CCn1c(-c2ccccc2CN(C)C)c2c3cc(ccc31)-c1cc(O)cc(c1)C[C@H](NC(=O)[C@H](C(C)C)N(C)C(=O)[C@H]1CCN(C(=O)/C=C/CN(C)C)C1)C(=O)N1CCC[C@H](N1)C(=O)OCC(C)(C)C2
2. CCn1c(-c2cccnc2[C@H](C)OC)c2c3cc(ccc31)-c1csc(n1)C[C@H](NC(=O)[C@H](C(C)C)N(C)C(=O)N1CCN3CCOC[C@H]3C1)C(=O)N1CCC[C@H](N1)C(=O)OCC(C)(C)C2

result:
6.00 to 7.00
5.00 to 6.00

# map each compound to its pIC50
1. CCn1c(-c2cccnc2[C@H](C)OC)c2c3cc(ccc31)-c1csc(n1)C[C@H](NC(=O)[C@H](C(C)C)N(C)C(=O)N1CC[C@@H](O)C1)C(=O)N1CCC[C@H](N1)C(=O)OCC(C)(C)C2 (atropisomer, axis not shown)
2. CCn1c(-c2cccnc2[C@H](C)OC)c2c3cc(ccc31)-c1csc(n1)C[C@H](NC(=O)[C@H](C(C)C)N(C)C(=O)N1CC3CCN(C)CC31)C(=O)N1CCC[C@H](N1)C(=O)OCC(C)(C)C2 (stereo partly drawn)
3. CCn1c(-c2cccnc2[C@H](C)OC)c2c3cc(ccc31)-c1cc(O)cc(c1)C[C@H](NC(=O)[C@H](C(C)C)N(C)C(=O)[C@H]1CCCNC1)C(=O)N1CCC[C@H](N1)C(=O)OCC(C)(C)C2

result:
1. 6.00 to 7.00
2. 5.00 to 6.00
3. 7.00 to 8.00

List the reported pIC50 of each compound below.
1. CCn1c(-c2cccnc2[C@H](C)OC)c2c3cc(ccc31)-c1cc(O)cc(c1)C[C@H](NC(=O)[C@@H]1C[C@H]1C)C(=O)N1CCC[C@H](N1)C(=O)OCC(C)(C)C2
2. CCn1c(-c2cccnc2[C@H](C)OC)c2c3cc(ccc31)-c1cccc(c1)C[C@H](NC(=O)[C@H](C(C)C)N(C)C(=O)[C@H]1CCN(C(=O)CN)C1)C(=O)N1CCC[C@H](N1)C(=O)OCC(C)(C)C2
3. CCn1c(-c2cccnc2[C@H](C)OC)c2c3cc(ccc31)-c1cc(O)cc(c1)C[C@H](NC(=O)[C@H](C(C)C)N(C)C(=O)[C@H]1C[C@H](O)C1)C(=O)N1CCC[C@H](N1)C(=O)OCC(C)(C)C2

result:
1: 5.00 to 6.00; 2: 5.00 to 6.00; 3: 6.00 to 7.00
